In this section we review reported TGI values for a set of molecules.
Test system: RPMI-8226 leukemia
ASSAY_PROTOCOL: NCI tumour cell line growth inhibition, 48 h

# MOLECULE, TGI
data = [
    ("O=C(NNc1ccccc1)c1ccc(Cl)c(Cl)c1", "> 54.4 µM"),
    ("COc1ccc2c(C)cc(N/N=C/c3ccc(C)s3)nc2c1", "> 35.7 µM"),
    ("O=C1CC(Cc2n[nH]c3c2CCCC3)CC(=O)N1", "> 100 µM"),
    ("CC(=O)CCc1ccc(Oc2c3c(nc4ccccc24)OCC3)cc1", "> 100 µM"),
    ("Nn1c(-c2cccc(Cl)c2)nc2ccccc2c1=O", "> 100 µM"),
    ("Cc1c(NC(=O)CSC(=S)N(C)C)c(=O)n(-c2ccccc2)n1C", "> 100 µM"),
    ("CC(NP(=O)(c1ccccc1)c1ccccc1)c1ccccc1 (configuration not stated)", "> 100 µM"),
    ("Cc1cc(N(CCC#N)CCC#N)ccc1/C=C(\\NC(=O)/C=C/c1ccccc1)C(=O)Nc1ccc(Cl)cc1", "> 100 µM"),
    ("Cn1c2c(c3ccccc3c1=O)C(=O)c1ccccc1-2", "> 100 µM"),
    ("O=C1C[C@@H]2[C@@H](c3ccccc3)[C@@H]3C(=O)c4ccccc4NC(=O)[C@H]3[C@]2(O)c2ccccc2N1", "> 100 µM"),
    ("O=CC(O)C(O)C1OC(=O)c2cc(O)c(O)c(O)c2C2=C(O)C(O)=C3OC(=O)c4c(c(O)c(O)c5c4C3C2C(=O)O5)-c2c(cc(O)c(O)c2O)C(=O)OCC1O (configuration not stated)", "> 100 µM"),
    ("COC(=O)[C@]12C3=C(O)C(=O)C[C@H]1OC[C@H]2C=CC3", "> 100 µM"),
]

---

Test system: UO-31 renal
ASSAY_PROTOCOL: NCI tumour cell line growth inhibition, 48 h
In this section we review reported TGI values for a set of compounds.

# COMPOUND, TARGET_OR_SYSTEM, TGI
measured = [
    ("C[C@H](CCC(=O)NCCS(=O)(=O)O)[C@H]1CC[C@H]2[C@@H]3[C@H](O)C[C@@H]4C[C@H](O)CC[C@]4(C)[C@H]3CC[C@]12C", "UO-31 renal", "> 100 µM"),
    ("CO[C@@H]1C[C@H]2[C@@H]3CC[C@H]([C@H](C)COC(C)=O)[C@@]3(C)CC[C@@H]2[C@@]2(C)CC[C@H]3C[C@]312", "UO-31 renal", "> 100 µM"),
    ("O=C1NC2C3CC(OCc4ccccc4)(OCc4ccccc4)C2OC3O1 (stereo not given)", "UO-31 renal", "> 50 µM"),
    ("Cc1cccc2c1Sc1ccccc1C2NC(=O)CN(C)C (stereo not given)", "UO-31 renal", "> 100 µM"),
    ("CC1=NN(c2cccc(Cl)c2)C(=O)/C1=C\\C=C\\c1ccccc1", "UO-31 renal", "3.49 µM"),
    ("CCOC(=O)C(=O)Nc1c(C)cccc1C(C)(C)C", "UO-31 renal", "> 100 µM"),
    ("Cc1c(NC(=O)Nc2c(Cl)cccc2Cl)c(=O)n(-c2ccccc2)n1C", "UO-31 renal", "> 100 µM"),
    ("CC(C)OC(=O)C1(C(C)C)CCc2ccc(C(=O)CCC(=O)O)cc21 (stereo not given)", "UO-31 renal", "> 100 µM"),
    ("Clc1cc(OCc2nn3c(Cc4ccccc4)nnc3s2)c(Cl)cc1OCc1nn2c(Cc3ccccc3)nnc2s1", "UO-31 renal", "> 100 µM"),
    ("CN(C)C(=S)/N=c1\\ssc(=S)n1Cc1ccco1", "UO-31 renal", "> 100 µM"),
    ("O=C(NCc1ccco1)C1CCN(S(=O)(=O)c2ccc(Cl)cc2)CC1", "UO-31 renal", "> 100 µM"),
    ("Cc1ccc(Nc2nc(=O)c3c([nH]c4ccccc43)s2)cc1", "UO-31 renal", "7.32 µM"),
    ("CN(/N=C/C=N/N(C)C1=NCCCN1)C1=NCCCN1", "UO-31 renal", "> 100 µM"),
    ("CNn1c(-c2ccc(C)cc2)n[nH]c1=O", "UO-31 renal", "> 100 µM"),
    ("COc1cc2c(NC3CCN(C(C)C)CC3)nc(C3CCCCC3)nc2cc1OCCCN1CCCC1", "UO-31 renal", "28.1 µM"),
    ("Cc1cc(S(=O)(=O)NC2=NCCCN2)c(S)cc1Cl", "UO-31 renal", "> 100 µM"),
    ("CC(=O)c1c2c(cc3c1CC1(Cc4cc5c(cc4C1)C(=O)CCC5)C3)CCCC2 (stereo not given)", "UO-31 renal", "> 90.6 µM"),
    ("CCN(CC)/[N+]([O-])=N/OCOC", "UO-31 renal", "> 100 µM"),
    ("CC(=O)CCc1ccc(Oc2c3c(nc4ccccc24)OCC3)cc1", "UO-31 renal", "> 100 µM"),
    ("Cc1ccc(C)n2c1nc1cc3ccccc3cc12", "UO-31 renal", "94.4 µM"),
]
